Test system: IgE antibody
Assay: Serum IgE antibody ELISA, bronchial asthma mice
Format: in vivo, mouse
Conditions: OVA bronchial asthma; serum day 28; oral 10 mg/kg (dexamethasone 2 mg/kg); control 73, vehicle 117
Protocol: A 0.2 mL dose of 50 μg ovalbumin (OVA) and 2 mg Alum mixture was administered to 6-week-old female Balb/c mice (Japan SLC Inc.) (day 0 of the example). Alum was used as an adjuvant. […] Starting on day 21, 400 μg OVA was administered intranasally, and cough was measured on day 27. […] Serum was collected from day 28 mice in Examples 14, and IgE antibody production was measured by enzyme-linked immunosorbent assay (ELISA). […]
quantity.name: amount of IgE antibody (ng/mL)
Give bare numbers, in ng/mL.

Batch of 4 compounds: report amount of IgE antibody for each.
1. CN(C)CC/C=C1/c2ccccc2COc2ccc(CC(=O)O)cc21
2. C[C@@H]1C[C@H]2[C@@H]3CCC4=CC(=O)C=C[C@]4(C)[C@@]3(F)[C@@H](O)C[C@]2(C)[C@@]1(O)C(=O)CO
3. C[C@@H]1CCN(C(=O)CC#N)C[C@@H]1N(C)c1ncnc2[nH]ccc12
4. O=c1c2cc(O)c(O)cc2oc2cc(O)cc(O)c12 [norathyriol, 1,3,6,7-tetrahydroxyxanthone]

[126, 34, 101, 88]

Data origin: patent US20260007634A1
